# EXPERIMENTAL_SYSTEM: HLA-B1301 (Homo sapiens, UniProt P01889, A65T/A93T/A95T/D138N/D201E/D98Y/E176V/E204Q/E69M/E70A/G107R/K202T/L105A/L119I/N104T/N87E/Q94N/R106L/R155S/R169L/R180L/S101N/S121R/S35A/S48T/T118I/V127L/V36M/Y140L/Y91S)
# MEASUREMENT_PROTOCOL: Competitive peptide binding assay, CIR-B1301
# DETAILS: HMy2.CIR-B1301 cells, reference Cy5-[…], class from inhibition at 5 and 15 μM, flow cytometry MFI; read-out: Binding affinity with HLA-B1301
Peptide text beside a SMILES is read from it.

COMPOUND: CC(C)[C@H](NC(=O)CNC(=O)[C@H](Cc1c[nH]cn1)NC(=O)[C@@H]1CCCN1C(=O)[C@H](C)NC(=O)[C@H](CO)NC(=O)[C@H](CCC(N)=O)NC(=O)[C@@H]1CCCN1C(=O)[C@@H](N)Cc1ccccc1)C(=O)O [Epitope Y281] (H-FPQSAPHGV-OH; N-terminus and C-terminus assumed)
IC50: > 15 µM
--
COMPOUND: CC[C@H](C)[C@H](NC(=O)[C@H](CCC(N)=O)NC(=O)[C@@H](N)CC(C)C)C(=O)N1CCC[C@H]1C(=O)N[C@@H](Cc1ccccc1)C(=O)N[C@@H](C)C(=O)N[C@@H](CCSC)C(=O)N[C@@H](CCC(N)=O)C(=O)N[C@@H](CCSC)C(=O)O [Epitope Y81] (H-LQIPFAMQM-OH; N-terminus and C-terminus assumed)
IC50: < 5 µM
--
COMPOUND: CC(C)C[C@H](NC(=O)[C@H](CC(C)C)NC(=O)[C@H](CC(C)C)NC(=O)[C@H](CC(N)=O)NC(=O)[C@H](CO)NC(=O)[C@H](CS)NC(=O)[C@H](CCC(=O)O)NC(=O)[C@@H](N)[C@@H](C)O)C(=O)N[C@@H](CCC(N)=O)C(=O)N[C@@H](Cc1ccc(O)cc1)C(=O)O [Epitope Y231] (H-TECSNLLLQY-OH; N-terminus and C-terminus assumed)
IC50: 5 to 15 µM
--
COMPOUND: CC(C)C[C@H](NC(=O)[C@H](CC(=O)O)NC(=O)[C@H](C)NC(=O)[C@H](C)NC(=O)[C@@H]1CCCN1C(=O)[C@@H](N)CC(C)C)C(=O)N[C@@H](CC(=O)O)C(=O)N[C@@H](CC(=O)O)C(=O)N[C@@H](Cc1ccccc1)C(=O)O [Epitope Y180] (H-LPAADLDDF-OH; N-terminus and C-terminus assumed)
IC50: > 15 µM
--
COMPOUND: CC[C@H](C)[C@H](NC(=O)[C@H](CC(=O)O)NC(=O)[C@H](CCCNC(=N)N)NC(=O)CNC(=O)[C@H](Cc1ccccc1)NC(=O)[C@H](CCC(N)=O)NC(=O)[C@H](CCC(N)=O)NC(=O)[C@H](Cc1ccccc1)NC(=O)[C@@H]1CCCN1C(=O)[C@@H](N)CC(C)C)C(=O)O [Epitope Y282] (H-LPFQQFGRDI-OH; N-terminus and C-terminus assumed)
IC50: > 15 µM
--
COMPOUND: CC[C@H](C)[C@H](NC(=O)[C@H](CCCNC(=N)N)NC(=O)[C@H](CC(C)C)NC(=O)[C@H](CCSC)NC(=O)[C@H](CC(N)=O)NC(=O)[C@@H]1CCCN1C(=O)[C@H](CCSC)NC(=O)[C@H](C)NC(=O)[C@@H](N)CCCNC(=N)N)C(=O)O [Epitope Y77] (H-RAMPNMLRI-OH; N-terminus and C-terminus assumed)
IC50: > 15 µM
